# ASSAY_DETAILS: Acute oral toxicity in beagle dogs
# TEST_CONTEXT: dog, in vivo

COMPOUND_SMILES: CS(=O)(=O)c1ccc(Oc2ccc(Cl)c(Cl)c2)cc1
LD50: > 2000 mg/kg

====

Known EC50 of a selection of compounds
# Tested on: Coxsackie A21 virus (Cox A21)
# ASSAY_DETAILS: Tissue culture antiviral test (HeLa cells), Cox A21
# Assay type: cell-based
# TEST_CONTEXT: 48 and 72 hours post-treatment, read-out: Lowest concentration necessary to cause a 50 percent reduction in cytopathic effect, Cox A21
VALUE_KIND: EC50

COMPOUND_SMILES: CS(=O)(=O)c1ccc(Oc2ccc(OC(F)(F)C(Cl)Cl)cc2)cc1
TGT: Coxsackie A21 virus (Cox A21)
RESULT: 0.625 µg/mL
--
COMPOUND_SMILES: CS(=O)(=O)c1ccc(Oc2ccc([N+](=O)[O-])cc2[N+](=O)[O-])cc1
TGT: Coxsackie A21 virus (Cox A21)
RESULT: ≤ 6.25 µg/mL
--
COMPOUND_SMILES: CS(=O)(=O)c1ccc(Oc2ccc(OCC#N)cc2)cc1
TGT: Coxsackie A21 virus (Cox A21)
RESULT: 2.5 µg/mL
--
COMPOUND_SMILES: CCN(CC)S(=O)(=O)c1ccc(Oc2ccc(S(C)(=O)=O)cc2)cc1
TGT: Coxsackie A21 virus (Cox A21)
RESULT: 25 µg/mL
--
COMPOUND_SMILES: CSc1ccc(Oc2ccc(C#N)cc2)cc1
TGT: Coxsackie A21 virus (Cox A21)
RESULT: < 3.12 µg/mL
--
COMPOUND_SMILES: CS(=O)(=O)c1ccc(Oc2ccc(Cl)c(Cl)c2)c(C#N)c1
TGT: Coxsackie A21 virus (Cox A21)
RESULT: 12.5 µg/mL
--
COMPOUND_SMILES: CS(=O)(=O)c1ccc(Oc2ccc(Br)cc2)cc1
TGT: Coxsackie A21 virus (Cox A21)
RESULT: < 3.12 µg/mL
--
COMPOUND_SMILES: CN(C)S(=O)(=O)c1ccc(Oc2ccc(S(C)(=O)=O)cc2)cc1
TGT: Coxsackie A21 virus (Cox A21)
RESULT: 50 µg/mL
--
COMPOUND_SMILES: CC(=O)c1ccc(Oc2ccc(S(C)(=O)=O)cc2)cc1
TGT: Coxsackie A21 virus (Cox A21)
RESULT: < 6.25 µg/mL
